Molecular target: 5-HT2A receptor (Homo sapiens, UniProt P28223)
Construct: host or cells: HEK293
Sequence (P28223 whole entry): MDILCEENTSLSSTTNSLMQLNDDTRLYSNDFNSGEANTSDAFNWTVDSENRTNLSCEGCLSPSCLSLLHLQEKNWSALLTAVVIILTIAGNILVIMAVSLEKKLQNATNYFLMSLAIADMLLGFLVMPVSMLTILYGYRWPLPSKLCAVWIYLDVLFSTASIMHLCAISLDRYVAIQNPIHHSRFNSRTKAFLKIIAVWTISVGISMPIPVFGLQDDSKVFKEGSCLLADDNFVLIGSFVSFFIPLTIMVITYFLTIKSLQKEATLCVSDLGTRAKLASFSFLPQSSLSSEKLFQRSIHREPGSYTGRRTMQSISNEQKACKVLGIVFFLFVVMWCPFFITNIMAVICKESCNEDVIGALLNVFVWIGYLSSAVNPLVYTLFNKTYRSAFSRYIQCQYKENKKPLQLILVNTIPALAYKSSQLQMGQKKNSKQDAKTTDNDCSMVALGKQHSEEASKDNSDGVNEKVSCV
Test: FLIPR Ca2+ flux functional assay, 5-HT2A
Format: cell-based
Details: agonist activity, Ca2+ flux, HEK293 cells
Listed compounds paired with reported Emax
The figure you give is taken to be in %; do not add the unit.

Sample Smiles	Emax, %
CN(C)CCc1c[nH]c2c(F)c(F)ccc12	62
CCN(CC)CCc1c[nH]c2ccc3ocnc3c12	64
CCN(C)CCc1c[nH]c2cc(F)c(F)cc12	92.4

Look up Emax for this compound: `CCN(C)CCc1c[nH]c2ccc(C)c(OC)c12`
78

Look up Emax for this compound: `COc1cc(F)cc2[nH]cc(CCN(C(C)C)C(C)C)c12`
91.3

Look up Emax for this compound: `COc1cc(F)cc2[nH]cc(CCN(C)C(C)C)c12`
65.4

Look up Emax for this compound: `CC(C)N(CCc1c[nH]c2ccc3ocnc3c12)C(C)C`
87.5

Look up Emax for this compound: `COc1cc(F)c2[nH]cc(CCN(C)C(C)C)c2c1`
60.2

----------
Molecular target: 5-HT2B receptor (Homo sapiens, UniProt P41595)
Construct: host or cells: CHO-K1
Sequence (P41595 whole entry): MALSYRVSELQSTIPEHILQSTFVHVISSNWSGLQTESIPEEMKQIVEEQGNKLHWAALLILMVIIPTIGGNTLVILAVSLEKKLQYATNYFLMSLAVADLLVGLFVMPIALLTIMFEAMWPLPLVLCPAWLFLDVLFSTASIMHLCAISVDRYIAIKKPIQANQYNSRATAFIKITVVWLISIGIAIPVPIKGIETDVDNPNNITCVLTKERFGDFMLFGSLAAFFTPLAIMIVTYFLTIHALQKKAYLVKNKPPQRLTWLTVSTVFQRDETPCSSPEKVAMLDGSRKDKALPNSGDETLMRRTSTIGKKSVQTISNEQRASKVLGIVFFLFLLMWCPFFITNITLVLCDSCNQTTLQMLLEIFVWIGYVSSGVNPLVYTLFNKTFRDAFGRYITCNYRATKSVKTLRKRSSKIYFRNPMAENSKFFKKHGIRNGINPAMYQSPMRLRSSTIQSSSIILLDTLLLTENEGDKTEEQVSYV
Experiment: cell-based
Conditions: agonist activity, Ca2+ flux, CHO-K1 cells; read-out: 5-HT2B EC50
Listed compounds paired with reported EC50

Sample Smiles	Experimental System	EC50
CCN(CC)CCc1c[nH]c2c(C)ccc(OC)c12	5-HT2B receptor (Homo sapiens, UniProt P41595)	> 10 µM

Look up EC50 for this compound: `COc1ccc(C)c2[nH]cc(CCN(C)C)c12`
> 10 µM

Look up EC50 for this compound: `CCN(CCc1c[nH]c2ccc(C)c(OC)c12)C(C)C`
5.32 µM

Look up EC50 for this compound: `CCN(C)CCc1c[nH]c2ccc(F)c(OC)c12`
> 10 µM

Look up EC50 for this compound: `CCCN(CCC)CCc1c[nH]c2ccc(C)c(O)c12`
≥ 10 µM

----------
Assay: In vivo pharmacokinetics, plasma and brain exposure after IP dosing
Parameters: species or system male C57BL/6 mice
Conditions: male, C57BL/6, mouse, brain, ip, 10 mg/kg, 0.083 h, individual mouse, read-out: Brain Parenchyma Concentration, Individual
Endpoint: concentration at 0.083 h (µM)
The figure you give is taken to be in µM; do not add the unit.

Sample Smiles	Endpoint Unit	concentration at 0.083 h
CCN(C)CCc1c[nH]c2c(C)cc(OC)cc12	µM	28.6

Look up concentration at 0.083 h for this compound: `CCN(C)CCc1c[nH]c2cc(C)c(OC)cc12`
10.1

----------
Molecular target: 5-HT2A receptor (Homo sapiens, UniProt P28223)
Construct: host or cells: HEK293
Test: FLIPR Ca2+ flux functional assay, 5-HT2A
Format: cell-based
Details: agonist activity, Ca2+ flux, HEK293 cells; read-out: 5-HT2A EC50
Endpoint: pEC50
A value of pEC50 is the negative decimal logarithm of a concentration given in moles per litre.

Sample Smiles	Readout Number
CCN(C)CCc1c[nH]c2c(C)ccc(OC)c12	6.95
CCN(CC)CCc1c[nH]c2c(C)ccc(OC)c12	6.55
CCN(C)CCc1c[nH]c2cc(F)cc(OC)c12	8.10
CC(C)N(C)CCc1c[nH]c2ccc3ocnc3c12	7.84

Field: next compound
Look up pEC50 for this compound: `COc1c(C)ccc2[nH]cc(CCN(C)C)c12`
7.61

----------
Biological target: 5-HT2B receptor (Homo sapiens, UniProt P41595)
Construct: host or cells: CHO-K1
Assay: cell-based
Details: agonist activity, Ca2+ flux, CHO-K1 cells; read-out: 5-HT2B EC50
Listed compounds paired with reported EC50

Compound	EC50
Cc1cc(O)c2c(CCN(C)C)c[nH]c2c1 [Example P-12]	> 10 µM

Look up EC50 for this compound: Cc1nc2c(ccc3[nH]cc(CCN(C(C)C)C(C)C)c32)o1 [Example P-135]
0.0314 µM

----------
Test: In vivo pharmacokinetics, plasma and brain exposure after IP dosing
Set-up: species or system male C57BL/6 mice
Conditions: male, C57BL/6, mouse, plasma, ip, 10 mg/kg, 0.5 h, n = 3, read-out: Plasma Concentration, Mean ± SD
Listed compounds paired with reported concentration at 0.5 h
The figure you give is taken to be in nM; do not add the unit.

Sample Smiles	concentration at 0.5 h [nM]
CCN(C)CCc1c[nH]c2ccc(OC)c(C)c12	1300
CCN(C)CCc1c[nH]c2c(C)cc(OC)cc12	3910

Field: next compound
Look up concentration at 0.5 h for this compound: `CCN(C)CCc1c[nH]c2cc(C)c(OC)cc12`
1640

----------
Listed molecules paired with reported Kp at 0.5 h
Experiment: In vivo pharmacokinetics, plasma and brain exposure after IP dosing
Set-up: species or system male C57BL/6 mice
Conditions: male, C57BL/6, mouse, brain/plasma, ip, 10 mg/kg, 0.5 h, individual mouse, read-out: B:P Ratio, Individual
Give the figure by itself; no unit, no explanation.

Molecule	Kp at 0.5 h
CCN(C)CCc1c[nH]c2cc(C)c(OC)cc12 [Example P-42]	18

Look up Kp at 0.5 h for this molecule: CCN(C)CCc1c[nH]c2c(C)cc(OC)cc12 [Example P-51]
7.4

Look up Kp at 0.5 h for this molecule: CCN(C)CCc1c[nH]c2ccc(OC)c(C)c12 [Example P-37]
20

----------
Assay: In vivo pharmacokinetics, plasma and brain exposure after IP dosing
Set-up: species or system male C57BL/6 mice
Details: male, C57BL/6, mouse, brain/plasma, ip, 10 mg/kg, 0.083 h, n = 3, read-out: B:P Ratio, Mean ± SD
Endpoint: Kp at 0.083 h

Past entries and their recorded results:
Sample Smiles	Endpoint	Result
CCN(C)CCc1c[nH]c2cc(C)c(OC)cc12	Kp at 0.083 h	4.3
CCN(C)CCc1c[nH]c2ccc(OC)c(C)c12	Kp at 0.083 h	8.3

Field: next compound
Look up Kp at 0.083 h for this compound: `CCN(C)CCc1c[nH]c2c(C)cc(OC)cc12`
4.9

----------
Molecular target: 5-HT2C receptor (Homo sapiens, UniProt P28335)
Construct: host or cells: HEK293
Sequence (P28335 33-458): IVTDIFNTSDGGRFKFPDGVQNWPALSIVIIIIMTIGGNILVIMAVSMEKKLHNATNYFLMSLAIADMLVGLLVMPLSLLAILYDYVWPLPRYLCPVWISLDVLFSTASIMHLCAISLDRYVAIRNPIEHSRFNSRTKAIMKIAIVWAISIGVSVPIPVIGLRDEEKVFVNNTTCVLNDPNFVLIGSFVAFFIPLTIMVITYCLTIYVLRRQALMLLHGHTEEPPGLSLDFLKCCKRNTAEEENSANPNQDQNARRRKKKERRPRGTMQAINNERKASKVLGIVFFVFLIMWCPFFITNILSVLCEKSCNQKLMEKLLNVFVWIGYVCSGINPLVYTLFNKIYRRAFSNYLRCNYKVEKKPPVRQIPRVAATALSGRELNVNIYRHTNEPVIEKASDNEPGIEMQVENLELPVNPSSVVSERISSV
Assay: cell-based
Settings: agonist activity, Ca2+ flux, HEK293 cells
Endpoint: Emax (%)
The figure you give is taken to be in %; do not add the unit.

Sample Smiles	Readout Number
CN(C)CCc1c[nH]c2ccc3c(c12)OCC3	76.4

Look up Emax for this compound: `CN(C)CCc1c[nH]c2cc3ccoc3cc12`
80.6

----------
Listed compounds paired with reported Emax
Molecular target: 5-HT2A receptor (Homo sapiens)
Construct: host or cells: HEK293
Experiment: FLIPR Ca2+ flux functional assay, 5-HT2A
Format: cell-based
Settings: agonist activity, Ca2+ flux, HEK293 cells
The figure you give is taken to be in %; do not add the unit.

Past entries and their recorded results:
Sample Smiles	Emax [%]
CCN(C)CCc1c[nH]c2cc(C)c(OC)cc12	88.2
CCN(CC)CCc1c[nH]c2ccc3oc(C)nc3c12	77.5
CCN(C)CCc1c[nH]c2c(F)cc(OC)cc12	85.6
CCN(CC)CCc1c[nH]c2c(C)cc(OC)cc12	82.8
CN(C)CCc1c[nH]c2cc3ccoc3cc12	46.5

Look up Emax for this compound: `CCN(C)CCc1c[nH]c2c(C)cc(OC)cc12`
69.2

Look up Emax for this compound: `COc1c(F)ccc2[nH]cc(CCN(C(C)C)C(C)C)c12`
93.2

----------
Experiment: In vivo pharmacokinetics, plasma and brain exposure after IP dosing
Design: species or system male C57BL/6 mice
Conditions: male, C57BL/6, mouse, brain, ip, 10 mg/kg, 4 h, individual mouse, read-out: Brain Parenchyma Concentration, Individual
Endpoint: concentration at 4 h (nM)
The figure you give is taken to be in nM; do not add the unit.

Look up concentration at 4 h for this molecule: CCN(C)CCc1c[nH]c2ccc(OC)c(C)c12 [Example P-37]
102
